This collection of values is drawn from paper PMC12538432.

target: CYP3A4 R212A (Homo sapiens, UniProt P08684, R212A); test: Equilibrium spectral binding titration of CYP3A4 R212A mutant
Sequence (P08684 with tags, fused parts or gaps R212A): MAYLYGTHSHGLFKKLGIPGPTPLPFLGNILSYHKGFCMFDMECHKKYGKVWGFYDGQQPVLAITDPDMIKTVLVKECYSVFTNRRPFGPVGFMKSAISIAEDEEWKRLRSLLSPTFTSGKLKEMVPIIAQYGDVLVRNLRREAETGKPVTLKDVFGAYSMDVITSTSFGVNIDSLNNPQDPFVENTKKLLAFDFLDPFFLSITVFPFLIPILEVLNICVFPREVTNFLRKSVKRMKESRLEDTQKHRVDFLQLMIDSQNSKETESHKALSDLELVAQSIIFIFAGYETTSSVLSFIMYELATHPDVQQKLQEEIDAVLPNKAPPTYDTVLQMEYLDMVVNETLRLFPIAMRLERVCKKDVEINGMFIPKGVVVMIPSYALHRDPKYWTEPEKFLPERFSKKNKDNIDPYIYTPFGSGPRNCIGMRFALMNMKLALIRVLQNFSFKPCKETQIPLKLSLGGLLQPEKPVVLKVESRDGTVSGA
Measured Metric: Kd (µM)
Kindly answer with a numeric value in µM, unit omitted.

Data request: Reported Kd for CCCCCc1cc(O)c2c(c1)OC(C)(C)[C@@H]1CCC(C)=C[C@@H]21 [THC, (−)-trans-Δ^9-tetrahydrocannabinol] : what is it?
Data returned: 2.8
